Origin of the recorded values: PubChem BioAssay (NCI)

Assay: NCI Yeast Anticancer Drug Screen. Data for the sgs1 mgt1 strain (AID 161);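 also: 0% = growth of cultures given vehicle only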
Conditions: S. cerevisiae sgs1 mgt1 strain, at 50.0 µM (retest, dose inferred, filed as 5.0), active compounds read high
This is part of a sample that, as a whole, favours compounds with a hit. Of some 79,000 tested, about 15% had one in any assay.
Measure name: growth inhibition (%)
Please state the figure in %; there is no need to write the unit.

| Compound | Obs value |
| --- | --- |
| CCOC(=O)C(Cl)Cl | -2 |
| CC(=O)O[C@H]1CCC2[C@@H]3CCC4Nc5oncc5C[C@]4(C)C3CC[C@@]21C (some centres undefined) | 53 |
| O=[N+]([O-])c1c[c]([Hg][Cl])c(O)[c]([Hg][Cl])c1 | 78 |
| CCCCCCC(=O)[O][Hg][c]1ccccc1 | 100 |
| CCOc1c(Br)cc(/C=C(\C)[N+](=O)[O-])cc1OC | 9 |
| CC(=O)Oc1ccc(/C=C/[N+](=O)[O-])cc1 | 99 |
| CCNC(=O)OOC(C)(C)C | 94 |
| CCCC(C)c1ccccc1OP(=S)(S)Oc1ccccc1C(C)CCC (centres undefined) | -2 |

Let's switch to this compound now.
Given "O=C(CBr)NC1CCCCC1" , state its recorded growth inhibition.
93

====

Experiment: NCI Yeast Anticancer Drug Screen. Data for the rad50 strain (AID 155);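 also: 0% = growth of vehicle-only cultures of the same strain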
Details: S. cerevisiae rad50 strain growth inhibition; at 50.0 µM
The panel holds about 79,000 compounds, 15% with a hit somewhere; the sample as a whole holds those more often. Active and inactive are the calls of the source. Rule as the data show it: active = growth inhibition above about 70%; inactive = the rest.
API: response.call in active, inactive

Use the examples below as a reference point.
| Compound | Group label |
| --- | --- |
| CCC[CH2][Sn]1([CH2]CCC)[O]CCN2CCN(CC[O]1)CC2 | active |
| CC[As](=O)(O)c1ccc(I)cc1 | inactive |
| COc1cc(CC(N)Cc2c[nH]c3ccccc23)cc(OC)c1OC (stereo unspecified) | inactive |
| CN(C)c1ccc(C2N(Cc3ccc(N(CCCl)CCCl)cc3)CCCN2Cc2ccc(N(CCCl)CCCl)cc2)cc1 | inactive |
| CCNC(=S)S | inactive |
| C=CCN1CCC23c4c5ccc(O)c4OC2C(=NN=C2CCC4(O)C6Cc7ccc(O)c8c7C4(CCN6CC=C)C2O8)CCC3(O)C1C5 (stereo unspecified) | inactive |
| O=C(COc1ccc(Cl)c(Cl)c1)NCCc1cc[n+](Cc2ccc(Cl)cc2S(=O)(=O)F)cc1 | inactive |
| O=C1C(=O)c2ccccc2C(O)=C1CN(CCCl)CCCl | inactive |

Query: recorded result category for "CC(C)(C)C(=O)CC(=O)C(C)(C)C.[Cl][Sb]1([Cl])[c]2ccccc2Cc2cccc[c]21" in this test
inactive

Hi team, can someone confirm the assay call for "CC(=O)Nc1ccc(C(=O)O)cc1" ?
inactive

Short answer needed: outcome of this test for "CCOP(=O)(N=S=O)OCC" ?
inactive

Tell me the assay call for "O=C([CH-]C(=O)c1ccccc1)c1ccccc1.O=C([CH-]C(=O)c1ccccc1)c1ccccc1.O=C([CH-]C(=O)c1ccccc1)c1ccccc1.[Cl-].[Zr+4]" please.
active

Dear all, I need the recorded test outcome for "Cn1c(O)c(C=N)c(=O)n(C)c1=O" , thank you.
inactive

Record request — test call for CC1C(C(=O)c2ccc(-c3ccccc3)cc2)N1C(C)(C)C (stereo unspecified)
inactive

Hello, I am checking results. What call was entered for "O=C(CN1CCOCC1)c1ccc2ccccc2c1" ?
inactive

Write down the call the test reported for this compound. Item: CNP1(=O)OC(c2ccccc2)=CCN1CCCl (stereo unspecified)
active

Answer briefly: the call reported for CC(=O)C(CN(C)Cc1ccccc1)C(c1ccccc1)c1c(O)c2ccccc2oc1=O (stereo unspecified) in this assay.
inactive

# fetch the recorded call for "CC(=O)[CH-]C(C)=O.CC(=O)[CH-]C(C)=O.CC(=O)[CH-]C(C)=O.[Ga+3]" here
inactive

# fetch the recorded call for "CCN1C[C@]2(C)CC[C@H](O)C34C1C(C[C@@H]32)[C@@]1(O)CC[C@H]2C[C@@H]4[C@@H]1[C@H]2O" here
inactive

Look up the recorded call for "Nc1nc2ncnc(N)c2nc1-c1ccc(N(CCCl)CCCl)cc1" in this test.
inactive

Just curious, what result did "CN(C)N(P(N)(Cl)(c1ccccc1)c1ccccc1)P(N)(Cl)(c1ccccc1)c1ccccc1" get here?
inactive
